Data credit: ChEMBL document CHEMBL4622931

# Lookup of reported pIC50 keyed by entry
# studySystem: Epidermal growth factor receptor (Homo sapiens, UniProt P00533, L858R)
# Sequence (P00533 25-1210 L858R limits assumed): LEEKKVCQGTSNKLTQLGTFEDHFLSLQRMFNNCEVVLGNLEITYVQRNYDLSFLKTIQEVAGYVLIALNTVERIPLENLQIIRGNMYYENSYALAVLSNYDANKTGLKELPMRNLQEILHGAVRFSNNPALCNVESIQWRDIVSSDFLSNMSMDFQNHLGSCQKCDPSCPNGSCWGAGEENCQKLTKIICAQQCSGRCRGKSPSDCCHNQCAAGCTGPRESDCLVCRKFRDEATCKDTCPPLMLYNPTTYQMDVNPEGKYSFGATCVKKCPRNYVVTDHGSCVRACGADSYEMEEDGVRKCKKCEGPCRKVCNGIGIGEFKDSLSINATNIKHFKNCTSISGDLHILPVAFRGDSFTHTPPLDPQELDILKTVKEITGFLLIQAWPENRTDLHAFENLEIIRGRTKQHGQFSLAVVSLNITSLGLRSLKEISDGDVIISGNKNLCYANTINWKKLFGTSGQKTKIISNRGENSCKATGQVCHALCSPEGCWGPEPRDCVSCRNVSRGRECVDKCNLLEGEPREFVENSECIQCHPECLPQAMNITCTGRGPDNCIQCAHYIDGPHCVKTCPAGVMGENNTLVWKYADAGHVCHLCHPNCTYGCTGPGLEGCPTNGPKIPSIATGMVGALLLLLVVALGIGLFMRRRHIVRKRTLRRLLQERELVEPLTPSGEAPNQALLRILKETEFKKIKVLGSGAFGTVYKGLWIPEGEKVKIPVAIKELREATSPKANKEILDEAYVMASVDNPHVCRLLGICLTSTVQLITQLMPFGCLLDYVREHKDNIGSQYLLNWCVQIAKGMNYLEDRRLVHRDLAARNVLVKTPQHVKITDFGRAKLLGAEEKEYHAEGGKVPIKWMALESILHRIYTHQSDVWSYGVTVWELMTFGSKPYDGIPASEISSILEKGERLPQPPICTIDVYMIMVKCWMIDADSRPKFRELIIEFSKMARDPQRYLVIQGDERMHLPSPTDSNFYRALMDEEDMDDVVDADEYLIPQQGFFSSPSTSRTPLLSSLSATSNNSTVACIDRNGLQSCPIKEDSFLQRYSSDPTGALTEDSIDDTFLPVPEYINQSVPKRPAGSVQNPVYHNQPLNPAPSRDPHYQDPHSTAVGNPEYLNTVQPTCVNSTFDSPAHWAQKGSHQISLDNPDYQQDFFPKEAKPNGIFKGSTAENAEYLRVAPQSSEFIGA
# runDescription: Inhibition of EGFR L858R mutant (unknown origin) in presence of radiolabelled gammaATP by radioisotope filter binding assay
FYI, pIC50 means -log10 of a concentration in mol per litre.

These solved cases illustrate the format of a correct answer.
INSERT INTO results (smilesrepr, studysystem, resulttype, experimentalvalue) VALUES
  ('N#Cc1cnc2cc(OC[C@@H](O)CO)c(NC(=O)C3CSSC3)cc2c1Nc1ccc(OCc2cccc(F)c2)c(Cl)c1', 'Epidermal growth factor receptor (Homo sapiens, UniProt P00533, L858R)', 'pIC50', 7.29),
  ('N#Cc1cnc2cc(OC[C@H](O)CO)c(NC(=O)CC3CSSC3)cc2c1Nc1ccc(OCc2cccc(F)c2)c(Cl)c1', 'Epidermal growth factor receptor (Homo sapiens, UniProt P00533, L858R)', 'pIC50', 6.41);

In the following, a different molecule is considered.
`N#Cc1cnc2cc(OC[C@@H](O)CO)c(NC(=O)CC3CSSC3)cc2c1Nc1ccc(OCc2cccc(F)c2)c(Cl)c1` tested on Epidermal growth factor receptor (Homo sapiens, UniProt P00533, L858R) gave pIC50: 6.38
